B1: LINE1-mini (parent)
chain: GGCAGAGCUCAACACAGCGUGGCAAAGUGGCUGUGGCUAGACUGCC

variants of: B1; assay: self-cleavage, relative activity (ratio to wild type); higher = more cleavage; in vitro, sequencing; the parent is a self-cleaving ribozyme
parameter: self-cleavage

- GGCAGAGCUUAACACAGCGUGGCAAAGUGGCUGUGGCUAGUCUGCC [C10U A41U]: 0.16
- GGCAGAGCUCAACACAGCGUCGCAAAGUGACUGUGGCUAGACUGCC [G21C G30A]: 1.86
- GGCAGAGCUCAACACAGCGUGGCAAAGUGGCUGUGGAUAGACCGCC [C37A U43C]: 0.05
- GGCAGAGCUCAACACUGCGUCGCAAAGUGGCUGUGGCUAGACUGCC [A16U G21C]: 0.27
- GGCAGAGCUCAACACAGCGUGGUAAAGUGGCUGUGGCUACACUGCC [C23U G40C]: 0.12
- GGCACAGCUCAACACAGCUUGGCAAAGUGGCUGUGGCUAGACUGCC [G5C G19U]: 0.14
- GGCAGAGCUCAACACAGCGUGGCACAGUGGCUGUGGCGAGACUGCC [A25C U38G]: 0.02
- GGCACAGCUCAACACAGCGUGGCAAAGUGGCUGUGGCAAGACUGCC [G5C U38A]: 0.09
- GGCAGAGCUCACCACAGCGUGCCAAAGUGGCUGUGGCUAGACUGCC [A12C G22C]: 0.02
- GGCAGAGCUCAACACAGCGUGGCAAAGUGGAGGUGGCUAGACUGCC [C31A U32G]: 0.05
- GGCAGAGCUCAACACAGGGUGGCAAAGUGGCUGUGGCUAGACUGCA [C18G C46A]: 0.43
- GGCAGAGCUCAACACGGCGUGGCACAGUGGCUGUGGCUAGACUGCC [A16G A25C]: 0.06
- GGCAGAGCUCAACACAGCUUGGCAAAGUGGCUAUGGCUAGACUGCC [G19U G33A]: 0.18
- GGGAGAGCUCAACACAGAGUGGCAAAGUGGCUGUGGCUAGACUGCC [C3G C18A]: 0.17
- GGCAGAGCUCAACACAGCAUGGGAAAGUGGCUGUGGCUAGACUGCC [G19A C23G]: 0.41
- GGCAGAGCUUAACACAGCGUGACAAAGUGGCUGUGGCUAGACUGCC [C10U G22A]: 0.25
- GGCAGAGUUCAACACAGCGUGGCUAAGUGGCUGUGGCUAGACUGCC [C8U A24U]: 0.33
- GGCAGAGCUCAACACAGCGUGGCAAAGGGGCUGUGGCUAGACUACC [U28G G44A]: 0.28
- GGCAGAGCUCAACACAGCGUGGCAAUGUCGCUGUGGCUAGACUGCC [A26U G29C]: 0.35
- GGCAUAGCUCAACACAGCGUGGCAAAGUGGCUGUGGCUAGGCUGCC [G5U A41G]: 0.06
- GGCAGAGCUGAACACAGCGUGGCAAAGUGGCUGUGCCUAGACUGCC [C10G G36C]: 0.03
- GGCACAGCUCAACACAGCGUGGCAAAGUAGCUGUGGCUAGACUGCC [G5C G29A]: 0.05
